Origin of measurements: paper PMC12349723

Test system: DU145-TXR cells
Experiment: MTT viability assay, reversal of MDR (re-sensitization to paclitaxel) in P-gp overexpressing DU145-TXR cells
Type: cell-based, human
Conditions: Homo sapiens, 15 µM Compound Alone; DU145-TXR; trial 2, sample 2; read-out: % Survival
Quick reference for viability at 15 µM among some compounds
Your answer is read as %, so omit the unit and give the number.

Check out these entries, answers already filled in.
Cc1onc(-c2ccccc2)c1-c1nnc(Cn2cnc3ccccc3c2=O)o1 :: 115
Cn1cnnc1SCc1c(C(=O)O)nnn1-c1nonc1N :: 102
Nc1nonc1-n1nnc(C(=O)N/N=C/c2c3ccccc3cc3ccccc23)c1COc1ccc(F)cc1 :: 88
O=C(c1cc2ccccc2[nH]1)N1CCN(S(=O)(=O)c2cccc3nonc23)CC1 :: 73
Cc1onc(-c2ccccc2)c1-c1nnc(Cn2cnc3c(oc4ccccc43)c2=O)o1 :: 89
O=C(c1nc(-c2ccc3cc[nH]c3c2)no1)N1CCN(c2nsc3ccccc23)CC1 :: 83
O=S(=O)(Cc1nc2ccccc2n1CC(O)c1ccc(Cl)cc1)c1ccccc1 (centres unmarked) :: 89

// next entry
Query block: What value of viability at 15 µM has been reported for the following compound? `COc1cccc(N2CCN(c3ccc4nnc(CCC(=O)Nc5ccc(F)c(F)c5)n4n3)CC2)c1`
Result block: 106

###

Experiment: Resazurin cell viability pre-screen in DU145-TXR cells with or without PTX
Assay type: cell-based
Details: human, mean of two experiments in triplicate, read-out: Viability, 15 µM compound alone
observed property: viability at 48 h, 15 µM (%)
// units = %; emit number, no label

COc1cc2c(cc1OC)CN(CCc1ccc(NC(=O)c3cc(OC)c(OC)cc3NC(=O)c3cnc4ccccc4c3)cc1)CC2 [Tariquidar, reference compound] :: 75.2

Proceeding to the next molecule to report its viability at 48 h, 15 µM.
Query block: Requested read-out: viability at 48 h, 15 µM. Entry: Cc1cccc(C2CC(=O)c3cnn(-c4nc5ccccc5[nH]4)c3C2)c1 (centres unmarked) [Compound 79]
Result block: 89.9

###

Test system: A2780 cells
Assay: MTT viability assay, parental A2780 cells, with or without PTX
Assay type: cell-based, human
Conditions: Homo sapiens, A2780, A2780 cells, 15 µM compound alone, mean of 8 or 12 samples; read-out: Mean % Survival
observed property: viability at 15 µM (%)
Give a bare numeral; the unit % is implied.

In the examples that follow, each entry is paired with its recorded viability at 15 µM.
NS(=O)(=O)c1cccc(NC(=O)CSc2nnnn2C2CC2)c1 [Compound 89, NS(=O)(=O)c1cccc(NC(=O)CSc2nnnn2C2CC2)c1] :: 87.9
Cc1onc(-c2ccccc2)c1-c1nnc(Cn2cnc3ccccc3c2=O)o1 [Compound 111] :: 94

Query block: Form entry - test system: A2780 cells; read-out: viability at 15 µM; compound: O=C(NCc1cccc(F)c1)c1nnn2c1Sc1c(C(=O)NCc3cccc(F)c3)nnn1CC2 [Compound 122]
Result block: 76.5

Query block: Request: viability at 15 µM, test system A2780 cells, entry O=C(c1nc(-c2ccc3cc[nH]c3c2)no1)N1CCN(c2nsc3ccccc23)CC1 [Compound 70]
Result block: 89.4

Query block: Fill in the recorded viability at 15 µM for this compound, with A2780 cells as test system: Cn1cnnc1SCc1c(C(=O)O)nnn1-c1nonc1N [Compound 59, Cn1cnnc1SCc1c(nnn1-c1nonc1N)C(O)=O]
Result block: 99

Query block: Short answer please: viability at 15 µM, A2780 cells, entry O=C(c1nc(-c2ccccn2)no1)N1CCN(c2nsc3ccccc23)CC1 [Compound 124]
Result block: 89.5

Query block: // map Cc1onc(-c2ccccc2)c1-c1nnc(Cn2cnc3c(oc4ccccc43)c2=O)o1 [Compound 78] to recorded viability at 15 µM (system: A2780 cells)
Result block: 91.4

Query block: Please tell me: viability at 15 µM of O=S(=O)(CCSc1nnc(-c2ccccc2)c2ccccc12)c1ccccc1 [Compound 96] , system A2780 cells?
Result block: 76.5

Query block: Which measured viability at 15 µM belongs to O=S(=O)(Cc1nc2ccccc2n1CC(O)c1ccc(Cl)cc1)c1ccccc1 (centres unmarked) [Compound 97] , tested on A2780 cells?
Result block: 89.8

Query block: I'm curious: which viability at 15 µM was measured for COc1cccc(N2CCN(c3ccc4nnc(CCC(=O)Nc5ccc(F)c(F)c5)n4n3)CC2)c1 [Compound 101] tested on A2780 cells?
Result block: 91.9

Query block: Identify the measured viability at 15 µM of Cc1ccc(-c2noc(-c3cn(Cc4ccc(NS(=O)(=O)c5ccccc5F)cc4)cn3)n2)cc1 [Compound 103] for A2780 cells.
Result block: 52.9
